Below, each of the compounds is paired with its reported CC50 at 24 h value.
# experiment_notes: in vitro
# condition_set: rat, gh3-tre-luc cells, AC50 (uM) modified / 1000
Counter-ions that a name gives are not always drawn.

- compound: "C1=Cc2ccccc2C1"
  CC50 at 24 h: "> 90 µM"
- compound: "NS(=O)(=O)c1cc2c(cc1Cl)NC(C(Cl)Cl)NS2(=O)=O (centres unmarked) [Trichlormethiazide]"
  CC50 at 24 h: "> 20 µM"
- compound: "CCN1CCC[C@H]1CNC(=O)c1c(O)c(Cl)cc(Cl)c1OC [Raclopride]"
  CC50 at 24 h: "> 50 µM"
- compound: "OCCCCCCCCCCCCBr"
  CC50 at 24 h: "> 90 µM"
- compound: "C[C@@H]1CN([C@H]2CC[C@](C#N)(c3ccc(F)cc3)CC2)CC[C@]1(C(=O)O)c1ccccc1 [Levocabastine hydrochloride]"
  CC50 at 24 h: "> 20 µM"

====

# experiment_notes: in vitro
# condition_set: rat, gh3-tre-luc cells, AC50 (uM) modified / 1000
Where a name gives a salt, the structure may show the parent alone.
Catalogue of CC50 at 24 h values

- compound: "Cc1c(F)c(F)c(COC(=O)[C@H]2[C@@H](/C=C(\\Cl)C(F)(F)F)C2(C)C)c(F)c1F (racemic)"
  CC50 at 24 h: "> 90 µM"
- compound: "CC(C)Cc1nccs1"
  CC50 at 24 h: "> 90 µM"
- compound: "CC(C)[C@H]1CC[C@@H](C)CC1=O (stereo in doubt)"
  CC50 at 24 h: "> 90 µM"
- compound: "N[C@@H](CCC(=O)N[C@@H](CS)C(=O)NCC(=O)O)C(=O)O"
  CC50 at 24 h: "> 50 µM"
- compound: "CCCCN(CCCC)CCC(O)c1cc2c(Cl)cc(Cl)cc2c2cc(C(F)(F)F)ccc12 (centres unmarked) [Halofantrine hydrochloride]"
  CC50 at 24 h: "> 20 µM"
- compound: "CC(=O)OC(C)OC(C)=O [1,1-Ethanediol diacetate]"
  CC50 at 24 h: "> 90 µM"
- compound: "CCCCCCCCN(C)CCCCCCCC"
  CC50 at 24 h: "> 90 µM"
- compound: "CCCOC(=O)CC [Propyl propionate]"
  CC50 at 24 h: "> 90 µM"
- compound: "Cc1cc(C)n(CO)n1"
  CC50 at 24 h: "> 90 µM"
- compound: "Cc1cccc(C)c1NC(=O)CN1CCCC1=O"
  CC50 at 24 h: "> 50 µM"
- compound: "Cn1cc(C2=C(c3cn(C4CCN(Cc5ccccn5)CC4)c4ccccc34)C(=O)NC2=O)c2ccccc21"
  CC50 at 24 h: "> 50 µM"

====

// reported CC50 at 24 h for each item listed
# experiment_notes: in vitro
# condition_set: rat, gh3-tre-luc cells, AC50 (uM) modified / 1000

- compound: "COC(OC)(C(=O)c1ccccc1)c1ccccc1"
  CC50 at 24 h: "> 90 µM"
- compound: "COc1ccc(-c2ccc3cc(C(=O)O)ccc3c2)cc1[C@]12C[C@H]3C[C@H](C[C@H](C3)C1)C2"
  CC50 at 24 h: "1.88 µM"
- compound: "O=C(O)c1ccc(O)cc1O [2,4-Dihydroxybenzoic acid]"
  CC50 at 24 h: "> 90 µM"
- compound: "CC[C@@H](C)[C@H](N)C(=O)O"
  CC50 at 24 h: "> 50 µM"
- compound: "COc1cc(-c2ccc(N=C=O)c(OC)c2)ccc1N=C=O"
  CC50 at 24 h: "> 50 µM"
- compound: "CC(C)NCC(O)COc1ccc(CCOCC2CC2)cc1 (centres unmarked)"
  CC50 at 24 h: "> 50 µM"
- compound: "CCN(CC)CCOc1ccc(Cc2ccccc2)cc1"
  CC50 at 24 h: "10.9 µM"
- compound: "Cc1cn([C@H]2C[C@H](N=[N+]=[N-])[C@@H](CO)O2)c(=O)[nH]c1=O"
  CC50 at 24 h: "> 90 µM"

====

# experiment_notes: in vitro
# condition_set: rat, gh3-tre-luc cells, AC50 (uM) modified / 1000
Where a name gives a salt, the structure may show the parent alone.
reported_endpoint: CC50 at 24 h

- molecule: "CCCCCCCCCCCCCCCC/C=C/C1CC(=O)OC1=O (centres unmarked) [Dihydro-3-(octadecenyl)-2,5-furandione]"
  reported_endpoint: "CC50 at 24 h"
  measurement: "36 µM"
- molecule: "Cc1onc(-c2ccccc2)c1-c1ccc(S(N)(=O)=O)cc1"
  reported_endpoint: "CC50 at 24 h"
  measurement: "> 50 µM"
- molecule: "NC(=O)OCCCc1ccccc1 [Phenprobamate]"
  reported_endpoint: "CC50 at 24 h"
  measurement: "> 50 µM"
- molecule: "CN(C)CCC=C1c2ccccc2COc2ccccc21 [Doxepin hydrochloride]"
  reported_endpoint: "CC50 at 24 h"
  measurement: "13.5 µM"
- molecule: "CCOC1O[C@H]([C@@H](COCc2ccccc2)OCc2ccccc2)[C@H](OCc2ccccc2)[C@H]1O (some centres unmarked) [Tribenoside]"
  reported_endpoint: "CC50 at 24 h"
  measurement: "> 20 µM"
- molecule: "CCCCCCCCCCCCCCN(CCO)CCO"
  reported_endpoint: "CC50 at 24 h"
  measurement: "23.3 µM"
- molecule: "CCN(CC)C(=O)C(C)Oc1cccc2ccccc12 (centres unmarked) [Napropamide]"
  reported_endpoint: "CC50 at 24 h"
  measurement: "> 90 µM"
- molecule: "CCNC(=S)NCC"
  reported_endpoint: "CC50 at 24 h"
  measurement: "> 90 µM"
- molecule: "CC(=O)SC[C@@H](C)C(=O)N1CCC[C@H]1C(=O)N[C@@H](Cc1ccccc1)C(=O)O"
  reported_endpoint: "CC50 at 24 h"
  measurement: "> 50 µM"
- molecule: "CC(C)(C)CC(C)(C)N"
  reported_endpoint: "CC50 at 24 h"
  measurement: "> 90 µM"
- molecule: "CC[Si](OC(C)=O)(OC(C)=O)OC(C)=O"
  reported_endpoint: "CC50 at 24 h"
  measurement: "> 90 µM"

====

# experiment_notes: in vitro
# condition_set: rat, gh3-tre-luc cells, AC50 (uM) modified / 1000
Quick list: CC50 at 24 h per entry.

- compound: "CC(=O)C=CC1=C(C)CCCC1(C)C"
  CC50 at 24 h: "> 90 µM"
- compound: "CC(=O)Nc1ccc(C)cc1 [N-Acetyl-p-toluidine]"
  CC50 at 24 h: "> 90 µM"
- compound: "CN1CCC(O)(c2ccc(F)cc2)C(C(=O)c2ccc(F)cc2)C1 (stereo not shown) [Flazalone]"
  CC50 at 24 h: "19.6 µM"
- compound: "COCCOCCOCCOC [Triethylene glycol dimethyl ether]"
  CC50 at 24 h: "> 90 µM"
- compound: "FC(F)(F)c1ccc(Cl)cc1Cl [2,4-Dichlorobenzotrifluoride]"
  CC50 at 24 h: "> 90 µM"
- compound: "COc1cc(O)cc(O)c1 [Flamenol]"
  CC50 at 24 h: "> 50 µM"
- compound: "O=S(=O)(O)CCCN1CCOCC1 [4-Morpholinepropanesulfonic acid]"
  CC50 at 24 h: "> 90 µM"
- compound: "CC(=O)C(=O)O [Pyruvic acid]"
  CC50 at 24 h: "> 90 µM"
- compound: "Cc1ccc(C=O)cc1C [3,4-Dimethylbenzaldehyde]"
  CC50 at 24 h: "> 90 µM"
- compound: "CC(C)=C1CC[C@@H](C)CC1=O [R-(+)-Pulegone]"
  CC50 at 24 h: "> 90 µM"
- compound: "Nc1ccc(NCCO)c([N+](=O)[O-])c1 [HC Red 3]"
  CC50 at 24 h: "52.7 µM"
- compound: "CC(=O)Oc1cccc(O)c1 [Resorcinol monoacetate]"
  CC50 at 24 h: "> 50 µM"
- compound: "SC1CCCC1 [Cyclopentanethiol]"
  CC50 at 24 h: "> 90 µM"

Where these numbers come from: paper PMC6792352
